// data source = patent US20090221680

target: prothrombin (Homo sapiens, UniProt P00734 P00734:44-622); assay: filter; 50 nM prothrombin; details: tags: Athens Research
For each of the binders below, state its binding signal.
Numbers only, in % bound.

Some binders with known binding signal results, for comparison:
[
  {
    "binder": "TCCCTCGATCTAAGGTGCTTTTAGTGGTTTGGGTGGCTGAGGATCGATC (ssDNA) [AMX(399)_D7]",
    "test-value": 24.9
  },
  {
    "binder": "TCCCGAGGGACGACGCCTAGGTTGGGTAGGGTGGTGGCTGAGGATCGATC (ssDNA) [AMX(399)_C11]",
    "test-value": 41.6
  }
]

Parameter requested: binding signal. Apply to each item below.
1. TCCCATTGATCCGGGGTGGTTTTCTGGTTTGGGTGGCTGAGGATCGATC (ssDNA) [AMX(399)_B10]
2. TCCCGATTGTCATAGGTGGTTTGTCTGGGTAGGGTGGCTGAGGATCGATC (ssDNA) [AMX(399)_E10]
3. TCCCGCATTGAATAGGACTCAGGGATGGTGTGGGTGGCTGAGGATCGATC (ssDNA) [AMX(399)_D6]
4. TCCCGATTGGAAAGCCTAGGATGGGTAGGGTGGTGGCTGAGGATCGATC (ssDNA) [AMX(399)_F12]
5. TCCCATGAACTCAGGGTAATTTTTTGGTGTGGGTGGCTGAGGATCGATC (ssDNA) [AMX(398)_D9]

OUT:
1. 23.6
2. 28.9
3. 22
4. 48.2
5. 41.8

# return binding signal for each item in the list
1. TCCTGTCGATCGGTACGTTTTCGTTTCTGGGTGGCTGAGGATCGATC (ssDNA) [AMX(398)_C11]
2. TCCCATCGAGTCGTGGTGTTTTGTTGGCCTGGGTGGCTGAGGATCGATC (ssDNA) [AMX(398)_F2]
3. TCCCAGGATCGATTCTGGTATTGTTGGTGGGGGTGGCTGAGGATCGATC (ssDNA) [AMX(399)_D9]
4. TCCCATCGAACCTCGAGGGTATTGTTGGCTTGGGTGGCTGAGGATCGATC (ssDNA) [AMX(399)_G3]
5. TCCCTTGATCCTGGTACATATATTTTCTGGGTGGCTGAGGATCGATC (ssDNA) [AMX(399)_F2]
6. TCCCGATCGTTTCGTGGGGTAGTGTTGGTTGGGGTGGCTGAGGATCGATC (ssDNA) [AMX(398)_C9]
7. TCCCATCGATCCGGGGTATTCTTATTTCTGGGTGGCTGAGGATCGATC (ssDNA) [AMX(398)_E1]
8. TCCCGTGAGAGCTGGGGTGTTTATATGGGTCGGGTGGCTGAGGATCGATC (ssDNA) [AMX(399)_G9]

OUT:
1. 36.7
2. 8.81
3. 19.7
4. 22.6
5. 7.92
6. 20.7
7. 20.9
8. 22.5

Go through the items and report each one's binding signal.
1. TCCCATCGATCTGTGGTGGTTTTGTGGTTTGGGTGGCTGAGGATCGATC (ssDNA) [AMX(399)_D10]
2. TCCCGCTATTCGATCTTCAATTGGGTGGTCAGGGTGGCTGAGGATCGATC (ssDNA) [AMX(399)_F9]

OUT:
[40.8, 26]

Count: 6. Required value per item: binding signal.
1. TCCCTGATCCTTAGGCTAGGTTGGGTGGGGTGGTGGCTGAGGATCGATC (ssDNA) [AMX(398)_B5]
2. TCTCATTCGTTCCGGGGTATTTAGTGGGTCGGGTGGCTGAGGATCGATC (ssDNA) [AMX(399)_C10]
3. TCCCGGATCTGTGGTAGGTTTGTTGGGTTGGGTGGCTGAGGATCGATC (ssDNA) [AMX(398)_E12]
4. TCCCGGTATCGTCATGCTGGTGGAATTGGTTGGGTGGCTGAGGATCGATC (ssDNA) [AMX(399)_G5]
5. TCCCGGAGATCTGAGGTGTTTTATTGGTTTGGGTGGCTGAGGATCGATC (ssDNA) [AMX(399)_H6]
6. TCCCGATTTCGATTCTGGTAGTGTTTTCTGGGTGGCTGAGGATCGATC (ssDNA) [AMX(399)_E3]

OUT:
1. 8.27
2. 34.3
3. 39.9
4. 18.9
5. 6.32
6. 13.3
